This section presents compounds with their documented EC50 values.
target.or.test.system: proteasome in Molt-4 cells (human leukemia) (Homo sapiens, UniProt P20618+P28074)
Type: cell-based
test.parameters: assay of Example E, inhibition of MOLT4; read-out: MOLT4 (EC50)

{"columns": ["molecular.string", "EC50"],
 "data": [
  ["CCCOc1cccc(C(=O)N[C@H](C(=O)N[C@@H](CC(C)C)B(O)O)[C@@H](C)O)c1", "< 0.2 µM"],
  ["CCCCCC(=O)NC[C@H](NC(=O)c1ccc(CCCC)cc1)C(=O)N[C@@H](CC(C)C)B(O)O", "< 0.2 µM"],
  ["CC(C)C[C@H](NC(=O)[C@H](CCCNC(=N)N[N+](=O)[O-])NC(=O)/C=C/c1cccs1)B(O)O", "> 10 µM"]
]}

Consider now this further compound.
Enquiry: Write down EC50 measured for item CC(C)C[C@H](NC(=O)[C@H](CCCNC(=N)N[N+](=O)[O-])NC(=O)CCCOc1ccccc1)B1O[C@@H]2C[C@@H]3C[C@@H](C3(C)C)[C@]2(C)O1
Return: 0.2 to 2 µM

---

measurement.type: melting point

Observe how each entry below is paired with its result.
{"columns": ["molecule", "measurement.type", "result"],
 "data": [
  ["CCCCc1ccc(C(=O)N[C@@H](CNC(=O)c2ccc(S(N)(=O)=O)cc2)C(=O)N[C@@H](CC(C)C)B2O[C@@H]3C[C@@H]4C[C@@H](C4(C)C)[C@]3(C)O2)cc1 [D.24.16]", "melting point", "145 to 147 °C"],
  ["CC(C)C[C@H](NC(=O)[C@@H](NC(=O)[C@H](CC(C)C)NC(=O)OCc1ccccc1)[C@@H](C)O)B1O[C@@H]2C[C@@H]3C[C@@H](C3(C)C)[C@]2(C)O1 [D.8.1]", "melting point", "38 to 40 °C"],
  ["CC(C)C[C@H](NC(=O)[C@H](CNC(=O)Nc1ccccc1)NC(=O)c1ccc(Oc2ccccc2)cc1)B(O)O [E.5.32]", "melting point", "155 to 158 °C"],
  ["CCCCc1ccc(C(=O)N[C@@H](CNC(=O)c2ccc(-c3nn[nH]n3)cc2)C(=O)N[C@@H](CC(C)C)B(O)O)cc1 [E.5.24]", "melting point", "> 250 °C"]
]}

Consider now this further molecule.
Enquiry: Write down melting point measured for item CCCCc1ccc(C(=O)N[C@@H](CNC(=O)C2CCN(S(C)(=O)=O)CC2)C(=O)N[C@@H](CC(C)C)B2O[C@@H]3C[C@@H]4C[C@@H](C4(C)C)[C@]3(C)O2)cc1 [D.24.36]
Return: 170 to 172 °C

---

This section presents compounds with their documented melting point values.

{"columns": ["compound", "measurement.type", "result"],
 "data": [
  ["Cc1cc(C(=O)NC[C@H](NC(=O)c2ccc(Oc3ccccc3)cc2)C(=O)N[C@@H](CC(C)C)B(O)O)n(C)n1 [E.5.31]", "melting point", "145 to 148 °C"],
  ["CCCCc1ccc(C(=O)N[C@@H](CNS(=O)(=O)c2cn(C)cn2)C(=O)N[C@@H](CC(C)C)B(O)O)cc1 [E.5.26]", "melting point", "120 to 123 °C"],
  ["CCCCCCCCCC(=O)N[C@@H](CNC(=O)c1ccc(S(N)(=O)=O)cc1)C(=O)N[C@@H](CC(C)C)B1O[C@@H]2C[C@@H]3C[C@@H](C3(C)C)[C@]2(C)O1 [D.24.2]", "melting point", "178 to 181 °C"]
]}

Enquiry: Write down melting point measured for item CCCCc1ccc(C(=O)N[C@@H](CNC(=O)C#Cc2ccccc2)C(=O)N[C@@H](CC(C)C)B(O)O)cc1 [E.5.35]
Return: 138 to 140 °C

Enquiry: Write down melting point measured for item CCCCc1ccc(C(=O)N[C@@H](CNS(C)(=O)=O)C(=O)N[C@@H](CC(C)C)B2O[C@@H]3C[C@@H]4C[C@@H](C4(C)C)[C@]3(C)O2)cc1 [D.24.4]
Return: 53 to 55 °C

---

target.or.test.system: proteasome in Molt-4 cells (human leukemia) (Homo sapiens, UniProt P20618+P28074)
Sequence (P28074 60-263): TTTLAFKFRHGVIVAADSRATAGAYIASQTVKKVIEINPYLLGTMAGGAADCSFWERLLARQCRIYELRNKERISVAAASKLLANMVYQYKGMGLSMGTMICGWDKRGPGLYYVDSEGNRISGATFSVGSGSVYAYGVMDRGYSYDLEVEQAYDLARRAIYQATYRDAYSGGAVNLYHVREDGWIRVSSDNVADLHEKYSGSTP
Sequence (P20618 29-241): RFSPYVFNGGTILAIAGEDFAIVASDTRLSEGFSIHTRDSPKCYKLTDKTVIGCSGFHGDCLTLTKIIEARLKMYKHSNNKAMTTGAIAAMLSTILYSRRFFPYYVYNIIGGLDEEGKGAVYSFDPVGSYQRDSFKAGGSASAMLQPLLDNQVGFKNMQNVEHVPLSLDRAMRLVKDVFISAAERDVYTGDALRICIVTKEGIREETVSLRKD
Assay type: cell-based
test.parameters: assay of Example E, inhibition of MOLT4; read-out: MOLT4 (EC50)
measurement.type: EC50

Enquiry: Write down EC50 measured for item CC(C)C[C@H](NC(=O)[C@H](CCCNC(=N)N[N+](=O)[O-])NC(=O)CCCc1cccs1)B1O[C@@H]2C[C@@H]3C[C@@H](C3(C)C)[C@]2(C)O1 [D.3.126]
Return: < 200 nM

Enquiry: Write down EC50 measured for item CCCCc1ccc(C(=O)N[C@@H](CNC(=O)NCCC)C(=O)N[C@@H](CC(C)C)B(O)O)cc1 [E.5.2]
Return: < 200 nM

Enquiry: Write down EC50 measured for item CCCCc1ccc(C(=O)N[C@@H](CNC(=O)c2cccn2C)C(=O)N[C@@H](CC(C)C)B(O)O)cc1 [E.5.16]
Return: < 200 nM

Enquiry: Write down EC50 measured for item COc1ccc(CCCC(=O)N[C@@H](CCCNC(=N)N[N+](=O)[O-])C(=O)N[C@@H](CC(C)C)B2O[C@@H]3C[C@@H]4C[C@@H](C4(C)C)[C@]3(C)O2)cc1 [D.3.50]
Return: < 200 nM

Enquiry: Write down EC50 measured for item CCCCc1ccc(C(=O)N[C@H](C(=O)N[C@@H](CC(C)C)B2OC3(CCCCC3)C3(CCCCC3)O2)[C@@H](C)O)cc1 [F.2.1]
Return: 200 to 2000 nM

Enquiry: Write down EC50 measured for item CC[C@@H](C(=O)N[C@@H](CCCNC(=N)N[N+](=O)[O-])C(=O)N[C@@H](CC(C)C)B(O)O)c1ccccc1 [E.2.4]
Return: > 10000 nM

---

This section presents molecules with their documented IC50 values.
target.or.test.system: 20S Human Erythrocyte Proteasome (HEP) (Homo sapiens, UniProt P20618+P28074)
Construct: 20S Human Erythrocyte Proteasome (HEP), purchased from Immatics Biotechnologies Inc
test.details: Chymotrypsin-like activity of 20S Human Erythrocyte Proteasome (HEP), IC50 determination
test.parameters: assay of Example C, inhibition of HEP

Observe how each entry below is paired with its result.
{"columns": ["molecule", "target.or.test.system", "result"],
 "data": [
  ["CC(C)C[C@H](NC(=O)[C@H](CCCNC(=N)N[N+](=O)[O-])NC(=O)CCCNC(=O)OCC1c2ccccc2-c2ccccc21)B1O[C@@H]2C[C@@H]3C[C@@H](C3(C)C)[C@]2(C)O1 [D.3.122]", "20S Human Erythrocyte Proteasome (HEP) (Homo sapiens, UniProt P20618+P28074)", "< 10 nM"],
  ["CCCCc1ccc(C(=O)N[C@H](C(=O)N[C@@H](CC(C)C)B2OC3(CCCCC3)C3(CCCCC3)O2)[C@@H](C)O)cc1 [F.2.1]", "20S Human Erythrocyte Proteasome (HEP) (Homo sapiens, UniProt P20618+P28074)", "< 100 nM"],
  ["CC(C)C[C@H](NC(=O)[C@H](CCCNC(=N)N[N+](=O)[O-])NC(=O)CCCC(=O)c1ccsc1)B(O)O [E.2.64]", "20S Human Erythrocyte Proteasome (HEP) (Homo sapiens, UniProt P20618+P28074)", "< 10 nM"]
]}

Consider now this further molecule.
Enquiry: Write down IC50 measured for item CC(C)C[C@H](NC(=O)[C@H](CCCNC(=N)N[N+](=O)[O-])NC(=O)CCN1C(=O)c2ccccc2C1=O)B(O)O [E.1.5]
Return: < 10 nM

---

target.or.test.system: proteasome in Molt-4 cells (human leukemia) (Homo sapiens, UniProt P20618+P28074)
Type: cell-based
test.parameters: assay of Example E, inhibition of MOLT4; read-out: MOLT4 (EC50)
pEC50: −log10 of the molar value.
measurement.type: pEC50

Observe how each entry below is paired with its result.
{"columns": ["molecule", "pEC50"],
 "data": [
  ["CCCCC[C@H]1CC[C@H](C(=O)N[C@@H](CCCNC(=N)N[N+](=O)[O-])C(=O)N[C@@H](CC(C)C)B2O[C@@H]3C[C@@H]4C[C@@H](C4(C)C)[C@]3(C)O2)CC1 [D.3.11]", "> 6.70"],
  ["CC(C)C[C@H](NC(=O)[C@H](CCCNC(=N)N[N+](=O)[O-])NC(=O)CCc1cccs1)B(O)O [E.1.12]", "< 5.00"],
  ["CC(C)C[C@H](NC(=O)[C@H](CCCNC(=N)N[N+](=O)[O-])NC(=O)CCCC1CCN(C)CC1)B1O[C@@H]2C[C@@H]3C[C@@H](C3(C)C)[C@]2(C)O1 [D.1.10]", "5.70 to 6.70"],
  ["CCCCc1ccc(C(=O)N[C@@H](CNC(=O)c2ccc(-c3ccccc3)cc2)C(=O)N[C@@H](CC(C)C)B(O)O)cc1 [E.5.33]", "5.70 to 6.70"],
  ["CCCCCCCCCC(=O)N[C@@H](CC(N)=O)C(=O)N[C@@H](CC(C)C)B1O[C@@H]2C[C@@H]3C[C@@H](C3(C)C)[C@]2(C)O1 [D.8.19]", "> 6.70"]
]}

Enquiry: Write down pEC50 measured for item CC(C)=CCC[C@@H](C)CC(=O)N[C@@H](CCCNC(=N)N[N+](=O)[O-])C(=O)N[C@@H](CC(C)C)B1O[C@@H]2C[C@@H]3C[C@@H](C3(C)C)[C@]2(C)O1 [D.3.75]
Return: > 6.70

Enquiry: Write down pEC50 measured for item CC(C)C[C@H](NC(=O)[C@H](CCCNC(=N)N[N+](=O)[O-])NC(=O)C1CCCCN1C(=O)OC(C)(C)C)B(O)O (mixture of isomers) [E.2.81]
Return: 5.00 to 5.70

Enquiry: Write down pEC50 measured for item CCCCCCCCCC(=O)N[C@@H](CC(N)=O)C(=O)N[C@@H](CC(C)C)B(O)O [E.1.27]
Return: > 6.70

Enquiry: Write down pEC50 measured for item CC(C)C[C@H](NC(=O)[C@H](CCCNC(=N)N[N+](=O)[O-])NC(=O)c1cccc2ccccc12)B1O[C@@H]2C[C@@H]3C[C@@H](C3(C)C)[C@]2(C)O1 [D.3.2]
Return: > 6.70

Enquiry: Write down pEC50 measured for item CC(C)C[C@H](NC(=O)[C@H](CCCNC(=N)N[N+](=O)[O-])NC(=O)c1cnccn1)B1O[C@@H]2C[C@@H]3C[C@@H](C3(C)C)[C@]2(C)O1 [D.1.2]
Return: 5.70 to 6.70
